Tested on: HCT-116
Assay: NCI tumour cell line growth inhibition, 48 h
The source made the active and inactive calls. No stated cut-off is given here; in the data, active = GI50 up to about 1.1 µM and inactive = higher.
Task for the reader: assign each of the following molecules its reported GI50.

Hello, I would appreciate it if you could give GI50 for each entry below.
1. Cc1c(C(=O)/C=C/c2c(Cl)cccc2Cl)c(=O)n(-c2ccccc2)n1C
2. COc1nc(N=P(c2ccccc2)(c2ccccc2)c2ccccc2)cc(=O)[nH]1
3. C[C@H]1COC(c2ccccn2)=N1
4. Cc1ccc(S(=O)(=O)NC2(C=O)CCCC3CCCCC32)cc1 (configuration not stated)
5. COCCCNC(=O)C1=C(C)NC(C)=C(C(=O)NCCCOC)C1
6. CCOC(=O)C(Cl)(NC(=O)c1c(F)c(F)c(F)c(F)c1F)C(F)(F)F (configuration not stated)
7. O=C1NC(=S)N/C1=C\c1cccs1

Output:
1. 8.53 µM (inactive)
2. > 100 µM (inactive)
3. > 100 µM (inactive)
4. > 100 µM (inactive)
5. > 100 µM (inactive)
6. > 100 µM (inactive)
7. > 100 µM (inactive)

Hello, I would appreciate it if you could give GI50 for each entry below.
1. CC1CCC(=O)C(C(O)CC2CC(=O)N(c3ccccc3)C(=O)C2)C1 (configuration not stated)
2. CC1CC/C(=C\c2ccc(F)cc2)C2=C1C(c1ccc(F)cc1)n1c(s/c(=C\c3ccc(Cl)cc3)c1=O)=N2 (configuration not stated)
3. CC1C2CC(C(C3C(=O)C4CC3C(C)(C)C4C)C2=O)C1(C)C (configuration not stated)
4. N#CC(C#N)=C1C(C#N)=C(N)NC12OCCO2
5. COc1ccc2cc(CN3CCC(C4CCN(Cc5ccc6cc(OC)ccc6c5)CC4)CC3)ccc2c1
6. Nc1ccn(C2(CO)C=C(CO)C(O)C2O)c(=O)n1 (configuration not stated)

Output:
1. > 100 µM (inactive)
2. > 100 µM (inactive)
3. > 100 µM (inactive)
4. > 100 µM (inactive)
5. 2.39 µM (inactive)
6. > 25.8 µM (inactive)

Hello, I would appreciate it if you could give GI50 for each entry below.
1. COC(=O)C(/C(=N/N)C(=O)Nc1cc(Cl)ccc1Cl)c1nc2ccc([N+](=O)[O-])cc2nc1O (configuration not stated)
2. CC(C)(C)OC(=O)NCC(c1c[nH]c2ccc(Br)cc12)c1c[nH]c2ccc(Br)cc12
3. CCOC(=O)CCc1c(C(=O)OCC)[nH]c(/C=C2/NC(=O)C(C)=C2CC)c1C
4. COC(=O)Cc1cc(=O)oc2c1C(=O)CCC2
5. COC(=O)/C=C1/OC(c2ccccc2)=CC1=O
6. Cn1cncc1CC1COC(=O)C1C(O)c1ccccc1 (configuration not stated)

Output:
> 100 µM (inactive)
4.14 µM (inactive)
13.1 µM (inactive)
> 100 µM (inactive)
15.9 µM (inactive)
> 100 µM (inactive)

Hello, I would appreciate it if you could give GI50 for each entry below.
1. CCCCCCOP(=O)(OCCCCCC)C(NC(=O)OCC)(C(F)(F)F)C(F)(F)F
2. CN1CCN(c2nc3c(c(=O)n(C)c(=O)n3C)n2C)CC1
3. Clc1ccc(OCc2nnc3sc(SSc4nn5c(COc6ccc(Cl)cc6)nnc5s4)nn23)cc1

Output:
1: 27.4 µM (inactive); 2: > 100 µM (inactive); 3: > 100 µM (inactive)

* * *

System: SK-MEL-28
Assay: NCI tumour cell line growth inhibition, 48 h
Calls of active or inactive are those of the source. Rule as the data show it: active = GI50 up to about 1.1 µM and inactive = higher.
measure: GI50

# example entries with known answers
compound: COc1cc(/N=C\N(C)C)c2ncccc2c1
measure: GI50
result: > 100 µM (inactive)

compound: Cc1c(Cl)c(S(N)(=O)=O)cc(S(N)(=O)=O)c1NC(=O)c1ccc(Cl)cc1
measure: GI50
result: > 100 µM (inactive)

Hello, I would appreciate it if you could give GI50 for each entry below.
1. CN(C)c1ccc(/C=C/c2ccnc3ccc4ccccc4c23)cc1
2. Oc1ccc2ccccc2c1OCc1nnc(CCCCCCCCc2nnc(COc3c(O)ccc4ccccc34)o2)o1

Output:
1: 38.5 µM (inactive); 2: > 100 µM (inactive)

* * *

System: DU-145
Assay: NCI tumour cell line growth inhibition, 48 h
Activity calls are given as the source filed them. Cut-off read from the data, not from the text of the source: active = GI50 up to about 1.1 µM and inactive = higher.
Reply using exactly one outcome from class 1 for active, class 0 for inactive

compound: N#CC12C(=O)N3C(=NC(c4ccccc4)NC3c3ccccc3)C1(C#N)C(c1ccccc1)NC1=C2CCC1 (centres undefined)
qualitativeLabel: class 0

compound: NC(=O)c1[nH]nc(C2OC(CO)C(O)C2O)c1O (centres undefined)
qualitativeLabel: class 1

compound: COC1/C=C(C)/C=C/C(C)/C=C/C(=O)OC(/C(C)=C/C=C(\C)CNC(=O)[C@H](CO)NC=O)C(C)/C=C/C=C/C(OC)CC/C=C(C)/C=C/C1 (some centres undefined)
qualitativeLabel: class 1

compound: O=c1cnn(C/C=C\CO)c(=O)[nH]1
qualitativeLabel: class 0

compound: CS/C=C\C(=O)O[C@H]1C[C@@H]2[C@@H](O)c3occ(C)c3C[C@]2(C)[C@@H](C)C1
qualitativeLabel: class 0

compound: C=C1C2CC[C@@](C)(O)C2[C@H]2OC(=O)C(=C)[C@@H]2C[C@H]1O (some centres undefined)
qualitativeLabel: class 0

compound: CC(C)[Si]1(C(C)C)OCC2OC(n3ccc(=O)[nH]c3=O)C(O)(CO)C2O[Si](C(C)C)(C(C)C)O1 (centres undefined)
qualitativeLabel: class 0

compound: Oc1cc(Cl)cc2cc(Br)cnc12
qualitativeLabel: class 0

In the following, a different compound is considered.
Task: Dear all, I need the recorded test outcome for COC(=O)CCc1cc(O)c2c(c1)C(C(=O)OC)C(c1ccc(O)c(O)c1)O2 (centres undefined) , thank you.
Output: class 0

* * *

Test system: EKVX
Experiment: NCI tumour cell line growth inhibition, 48 h
Calls of active or inactive are those of the source. Cut-off read from the data, not from the text of the source: active = GI50 up to about 1.1 µM and inactive = higher.
Task for the reader: assign each of the following molecules its reported GI50.

molecule: O=C(NCc1ccccc1Cl)c1c(O)c2ccccc2[nH]c1=O
result: > 100 µM (inactive)

molecule: CCCNC(=O)Cn1c(C)cc2ccccc21
result: > 100 µM (inactive)

molecule: CC(=O)n1nnc2ccc([N+](=O)[O-])cc21
result: > 100 µM (inactive)

Task: GET /values?readout=GI50&item= CCC(C)C(=O)c1c(O)c(C/C=C(\C)CCC=C(C)C)c(O)c2c(C(O)CC)cc(=O)oc12 (centres undefined)
Output: 3.6 µM (inactive)

* * *

Test system: HCC 2998
Assay: NCI tumour cell line growth inhibition, 48 h
Calls of active or inactive are those of the source. No stated cut-off is given here; in the data, active = GI50 up to about 1.1 µM and inactive = higher.
Reply using exactly one outcome from active, inactive

Solved cases below.
compound: CCOC(=O)C1C2CCC1CC(=NNc1ccc([N+](=O)[O-])cc1[N+](=O)[O-])C2 (stereo not given)
qualitativeLabel: inactive

compound: N#CC12C(=O)N3C(=NC(c4ccccc4)NC3c3ccccc3)C1(C#N)C(c1ccccc1)NC1=C2CCC1 (stereo not given)
qualitativeLabel: inactive

compound: Cc1cccc(C(=O)O)c1CC1NCCC2c3ccccc3NC12 (stereo not given)
qualitativeLabel: inactive

compound: CNC1CC(n2cc(C)c(=O)[nH]c2=O)OC1CO (stereo not given)
qualitativeLabel: inactive

Task: Dear all, I need the recorded test outcome for `CN(C)Cc1cc(C(=O)/C=C/c2ccc(F)cc2)cc(CN(C)C)c1O` , thank you.
Output: inactive

* * *

Tested on: UO-31
Assay: NCI tumour cell line growth inhibition, 48 h
Calls of active or inactive are those of the source. Cut-off read from the data, not from the text of the source: active = GI50 up to about 1.1 µM and inactive = higher.
measure: GI50

Hello, I would appreciate it if you could give GI50 for each entry below.
1. CC(=O)n1nnc2ccc([N+](=O)[O-])cc21
2. CSc1c(C#N)c(N)n(-c2ccc(C)cc2)c(=O)c1C#N
3. Cc1cc2[n-][n+]3ncc(-c4ccccc4)n3c2cc1[N+](=O)[O-]
4. C/C(=N\N=C(/S)N1CCCCCC1)c1cccc[n+]1[O-]

Output:
> 100 µM (inactive)
50.4 µM (inactive)
> 100 µM (inactive)
7.55 µM (inactive)

Hello, I would appreciate it if you could give GI50 for each entry below.
1. NC(Cc1cc(I)c(O)c(I)c1)C(=O)O (stereo not drawn)
2. C/C(=N\Nc1nc2ccccc2s1)c1ncccn1
3. Cc1nc2ccccc2cc1C[N+]12CN3CN(CN(C3)C1)C2
4. C=C(Br)CN(CC(=C)Br)C(C)=O
5. C/C(CC(O)(C(F)(F)F)C(F)(F)F)=N/Nc1ccc([N+](=O)[O-])cc1[N+](=O)[O-]
6. C=CCOn1c(C=C)nc2ccc(C)cc21

Output:
1: > 500 µM (inactive); 2: 0.022 µM (active); 3: 23.6 µM (inactive); 4: > 100 µM (inactive); 5: 2.32 µM (inactive); 6: 13.6 µM (inactive)

Hello, I would appreciate it if you could give GI50 for each entry below.
1. C=C(C)OCOCCOC
2. CCc1c(Cc2[nH]c(Cc3[nH]c(C=O)c(C)c3CC)c(CC)c2CC)[nH]c(C=O)c1C
3. Nc1ccn(C2(CO)C=C(CO)C(O)C2O)c(=O)n1 (stereo not drawn)
4. NC(=O)c1ccccc1NC(=O)C(=O)Nc1n[nH]c(N)n1
5. CC(=O)N1C2=CCCC2(C)c2ccccc21 (stereo not drawn)
6. CCCN(CCC)C(=S)N/N=C(/C)c1ccccc1O

Output:
["> 100 µM (inactive)", "> 100 µM (inactive)", "> 25.8 µM (inactive)", "> 100 µM (inactive)", "57.5 µM (inactive)", "4.11 µM (inactive)"]

Hello, I would appreciate it if you could give GI50 for each entry below.
1. CCN(N=O)C1C2(CCCC2)NC(=O)C12CCCC2 (stereo not drawn)
2. CN(C)CCCN1C(=O)N(CCCN(C)C)c2c3cc(O)ccc3nc3c([N+](=O)[O-])ccc1c23
3. Cn1nc(-c2ccccc2)nc1[N+](=O)[O-]
4. CC1OC(n2cc(F)c(=O)[nH]c2=O)CCC1O (stereo not drawn)

Output:
> 100 µM (inactive)
20.5 µM (inactive)
> 10 µM (inactive)
85.3 µM (inactive)

Hello, I would appreciate it if you could give GI50 for each entry below.
1. CC(SC1=CC(=O)c2c(O)ccc(O)c2C1=O)C(=O)O (stereo not drawn)
2. O=c1cnn(C/C=C\CO)c(=O)[nH]1
3. CCC(C)C1NC(=O)C(NC(=O)C(CC(C)C)N(C)C(=O)[C@@H]2CC(O)CN2C(=O)[C@H](C)O)C(C)OC(=O)[C@H](Cc2ccc(OC)cc2)N(C)C(=O)[C@@H]2CCCN2C(=O)[C@H](CC(C)C)NC(=O)C(C)C(=O)[C@H](C(C)C)OC(=O)CC1O (stereo partly drawn)

Output:
1: > 47.3 µM (inactive); 2: > 100 µM (inactive); 3: 1.44 µM (inactive)
